system: rat small-intestinal brush border membrane vesicles; test: Inhibitory effect on 33PO4 uptake into rat small-intestinal brush border membrane vesicles (rapid filtration method); type: biochemical, Wistar female rat; settings: 1 µM test compound; 33PO4 uptake into rat small-intestinal BBMVs, 60 seconds
Examples of molecules with documented Rate of uptake inhibition (%) (1 µM) follow.
property: Rate of uptake inhibition (%) (1 µM)

>  <structure-smiles-string>
CN(CCO)CCOc1ccc(CN2C(=O)C(C(=O)Nc3ccc(C(F)(F)F)cc3-c3cc(C(F)(F)F)ncn3)=C(O)C3(CCC3)N2C)c(F)c1F

>  <experimental-target>
rat small-intestinal brush border membrane vesicles

>  <property>
Rate of uptake inhibition (%) (1 µM)

>  <recorded-value>
28

$$$$
>  <structure-smiles-string>
CN(CCO)CCOc1ccc(CN2C(=O)C(C(=O)Nc3ccc(C(F)(F)F)cc3-c3cc(C(F)(F)F)ncn3)=C(O)C3(CCCC3)N2C)c(F)c1F

>  <experimental-target>
rat small-intestinal brush border membrane vesicles

>  <property>
Rate of uptake inhibition (%) (1 µM)

>  <recorded-value>
27

$$$$
>  <structure-smiles-string>
C[C@]12CCCN1N(Cc1c(F)cccc1F)C(=O)C(C(=O)Nc1ccc(C(F)(F)F)cc1-c1ccc(C(F)(F)F)nc1)=C2O

>  <experimental-target>
rat small-intestinal brush border membrane vesicles

>  <property>
Rate of uptake inhibition (%) (1 µM)

>  <recorded-value>
91

$$$$
>  <structure-smiles-string>
CC1(C)CC[C@]2(C)C(O)=C(C(=O)Nc3cc(C(F)(F)F)ccc3-c3ccc(C(F)(F)F)nc3)C(=O)N(Cc3cccc(F)c3F)N12

>  <experimental-target>
rat small-intestinal brush border membrane vesicles

>  <property>
Rate of uptake inhibition (%) (1 µM)

>  <recorded-value>
72

$$$$
>  <structure-smiles-string>
COc1cccc(-c2cc(C(F)(F)F)ccc2NC(=O)C2=C(O)[C@@]3(C)CCCN3N(Cc3cccc(F)c3F)C2=O)n1

>  <experimental-target>
rat small-intestinal brush border membrane vesicles

>  <property>
Rate of uptake inhibition (%) (1 µM)

>  <recorded-value>
56

$$$$
>  <structure-smiles-string>
CN1N(Cc2cccc(F)c2F)C(=O)C(C(=O)Nc2ccc(C(F)(F)F)nc2-c2ccc(C(F)(F)F)nc2)=C(O)C1(C)C

>  <experimental-target>
rat small-intestinal brush border membrane vesicles

>  <property>
Rate of uptake inhibition (%) (1 µM)

>  <recorded-value>
51

$$$$
>  <structure-smiles-string>
COc1cccc(-c2cc(C(F)(F)F)ccc2NC(=O)C2=C(O)[C@@]3(C)CCCN3N(Cc3ccc(C#CCOCCOCCOCCO)c(F)c3F)C2=O)c1OC

>  <experimental-target>
rat small-intestinal brush border membrane vesicles

>  <property>
Rate of uptake inhibition (%) (1 µM)

>  <recorded-value>
80

$$$$
>  <structure-smiles-string>
CN1N(Cc2ccc(OCCCCOC[C@H](O)CO)c(F)c2F)C(=O)C(C(=O)Nc2ccc(C(F)(F)F)cc2-c2cc(C(F)(F)F)ncn2)=C(O)C12CCC2

>  <experimental-target>
rat small-intestinal brush border membrane vesicles

>  <property>
Rate of uptake inhibition (%) (1 µM)

>  <recorded-value>
58

$$$$
>  <structure-smiles-string>
CN1[C@@H](C(C)(C)C)C(O)=C(C(=O)Nc2ccc(C(F)(F)F)cc2-c2ccc(C(F)(F)F)nc2)C(=O)N1Cc1cccc(F)c1F

>  <experimental-target>
rat small-intestinal brush border membrane vesicles

>  <property>
Rate of uptake inhibition (%) (1 µM)

>  <recorded-value>
47

$$$$
>  <structure-smiles-string>
CN1N(Cc2ccc(OCCCCOC[C@H](O)CO)c(F)c2F)C(=O)C(C(=O)Nc2ccc(C(F)(F)F)cc2-c2cc(C(F)(F)F)ncn2)=C(O)C12CCCC2

>  <experimental-target>
rat small-intestinal brush border membrane vesicles

>  <property>
Rate of uptake inhibition (%) (1 µM)

>  <recorded-value>
45

$$$$
>  <structure-smiles-string>
COC(=O)c1cccc(-c2cc(C(F)(F)F)ccc2NC(=O)C2=C(O)[C@@]3(C)CCCN3N(Cc3cccc(F)c3F)C2=O)c1OC

>  <experimental-target>
rat small-intestinal brush border membrane vesicles

>  <property>
Rate of uptake inhibition (%) (1 µM)

>  <recorded-value>
98

$$$$
>  <structure-smiles-string>
Cc1cc(NC(=O)C2=C(O)[C@@H]3CCCN3N(Cc3cccc(F)c3)C2=O)c(C(F)(F)F)o1

>  <experimental-target>
rat small-intestinal brush border membrane vesicles

>  <property>
Rate of uptake inhibition (%) (1 µM)

>  <recorded-value>
28

$$$$

Origin of the recorded values: patent EP2975030B1
